tested on: K562; assay: NCI tumour cell line growth inhibition, 48 h
Activity calls are given as the source filed them. No stated cut-off is given here; in the data, active = GI50 up to about 1.1 µM and inactive = higher.
readout-kind: GI50

These recorded examples may help you get a feel for the data.
> print(dat)
                                   compound              reported
1      Cc1ccc(/N=N/c2c(O)ccc3ccccc23)c(C)c1   > 100 µM (inactive)
2  CC(Cn1c(=O)oc2ccccc21)N(C)C (configuration not stated)   > 100 µM (inactive)
3                                O=[Se](O)O  > 28.2 µM (inactive)
4  CC(C)(C)c1cc(C(O)(C(F)(F)F)C(F)(F)F)c2c(c1)C(C(F)(F)F)(C(F)(F)F)OC(C(C)(C)C)N2 (configuration not stated)    2.39 µM (inactive)
5  CC(=O)OCC1OC(n2c3c(c(-c4ccc(Cl)cc4)c(C#N)c2=S)C(=O)CC(C)(C)C3)C(OC(C)=O)C(OC(C)=O)C1OC(C)=O (configuration not stated)    3.23 µM (inactive)
6  N=C(N)NCCCC(NC(=O)c1cccc2c(=O)c3ccccc3[nH]c12)C(=O)O (configuration not stated)   > 100 µM (inactive)

Here N#CC(NCCc1ccccc1)c1ccccc1 (configuration not stated) was tested on K562, and its GI50 came to > 10 µM (inactive)

---

system: SK-MEL-2; assay: NCI tumour cell line growth inhibition, 48 h
Active and inactive are the calls of the source. Rule as the data show it: active = GI50 up to about 1.1 µM and inactive = higher.
# reported GI50; entries follow

> print(dat)
                                   molecule  target.system  readout.kind             reported
1  CN1NC(c2ccccc2)=C(C#N)C(=O)CC1c1ccc(Br)cc1 (stereo not given)       SK-MEL-2          GI50   28.3 µM (inactive)
2  CCOC(=O)C12CCCC1(O)N(NC(=O)c1ccccc1)C(C)=C2C(=O)OC (stereo not given)       SK-MEL-2          GI50  > 100 µM (inactive)
3  O=C(Cn1c2ccc(Br)cc2c2nc3ccccc3nc21)NC1CCCCC1       SK-MEL-2          GI50  > 100 µM (inactive)
4  CCOC(=O)/C=C(/C(=O)OCC)n1ccc(=O)n(Cc2cn(CCCCOC(C)=O)nn2)c1=O       SK-MEL-2          GI50  > 100 µM (inactive)
5  NS(=O)(=O)c1nnc(NS(=O)(=O)c2ccccc2C(=O)O)s1       SK-MEL-2          GI50  > 100 µM (inactive)

Bench note, SK-MEL-2: entry CC1OC2(CC(OCc3ccccc3)C1OCc1ccccc1)OCCO2 (stereo not given) , its GI50 = 78.5 µM (inactive)

---

system: UACC-62; assay: NCI tumour cell line growth inhibition, 48 h
The source made the active and inactive calls. Rule as the data show it: active = GI50 up to about 1.1 µM and inactive = higher.
Mark one answer only. Choices: y for active, n for inactive

Some solved entries appear below for comparison.
molecule	group-label
COc1ccc(C(=O)CC2=Nc3nnc(CCCCCCCc4nnc5n4C(=O)C(CC(=O)c4ccc(OC)cc4)=N5)n3C2=O)cc1	n
COC(=O)C1=C(O)C(C(=O)OC)[C@@]2(O)[C@@H](C(=O)OC)C(c3ccc(OC(=O)/C(=C/c4ccc(Cl)cc4)c4ccc(Cl)cc4)cc3)C[C@@H]1[C@@H]2C(=O)OC (stereo partly specified)	n
Cc1ccc(-c2cc(-c3ccco3)c(C#N)c(=S)[nH]2)cc1	n
COc1cc(O)c2c(=O)cc(-c3ccc(O)cc3O)oc2c1CC=C(C)C	n
NCCCCNCCCN1CCOC1=O	n

What did the test return for "CCOC(=O)c1sc2c(C(=O)OCC)n3cc(C)cc(C)c3c2c1O" ?
n

I'd appreciate the recorded outcome for COc1cccc2c1C(=O)c1c(O)c3c(c(O)c1C2=O)C[C@H](O)C[C@@H]3OC1CC(N)C(O)C(C)O1 (stereo partly specified) from this test.
y

Query: recorded result category for "CC1CC[P+](c2ccccc2)(c2ccccc2)CC1" in this test
n

Per the records of this test, what outcome belongs to "COc1cc2c(oc(=O)c3c4oc([Si](C)(C)C)cc4cc(OC)c23)c2cccc(O)c12" ?
n

Outcome? "C=CCN1/C(=C(\C#N)c2nc3ccccc3[nH]2)Sc2c1nc[nH]c2=O"
n

Test call for this molecule, please: COC(=O)C1CCC(=O)N1C(c1ccccc1)c1cc(OC)c(OC)c(OC)c1 (stereo unspecified)
n
